- Target Or Test System: P2X purinoceptor 7 (Mus musculus, UniProt Q9Z1M0)
- Sequence (Q9Z1M0 whole entry): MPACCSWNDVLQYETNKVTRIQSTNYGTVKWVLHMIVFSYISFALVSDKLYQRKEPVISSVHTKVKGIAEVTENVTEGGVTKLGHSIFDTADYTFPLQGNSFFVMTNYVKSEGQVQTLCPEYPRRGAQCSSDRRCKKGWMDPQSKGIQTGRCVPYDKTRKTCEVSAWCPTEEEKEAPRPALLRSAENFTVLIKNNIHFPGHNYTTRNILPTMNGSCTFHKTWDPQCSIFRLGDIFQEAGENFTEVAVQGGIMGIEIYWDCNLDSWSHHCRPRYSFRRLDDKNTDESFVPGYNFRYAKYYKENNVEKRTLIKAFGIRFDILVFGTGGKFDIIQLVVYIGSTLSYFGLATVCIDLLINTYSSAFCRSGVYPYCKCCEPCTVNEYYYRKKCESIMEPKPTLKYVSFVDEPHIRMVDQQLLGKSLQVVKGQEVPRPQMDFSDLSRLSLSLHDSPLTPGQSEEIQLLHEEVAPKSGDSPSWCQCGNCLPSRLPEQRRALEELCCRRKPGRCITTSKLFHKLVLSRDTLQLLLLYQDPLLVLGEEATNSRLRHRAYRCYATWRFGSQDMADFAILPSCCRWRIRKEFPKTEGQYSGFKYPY
- Protocol Details: Antagonist activity at P2X7 receptor in LPS/IFNc-differentiated Swiss mouse peritoneal macrophages assessed as inhibition of ATP-induced IL-1beta release preincubated for 30 mins followed by LPS stimulation for 4 hrs using cells treated with ATP for 30 mins by ELISA
Recorded Endpoint: pIC50
Please treat pIC50 as minus the base-10 logarithm of the molar concentration.

Compound | Target Or Test System | pIC50
COc1ccc(CC(=O)NC(N/C(=N/C#N)Nc2cccc3ncccc23)C(C)(C)C)cc1OC (configuration not stated) | P2X purinoceptor 7 (Mus musculus, UniProt Q9Z1M0) | 6.95

Identify measured pIC50 corresponding to `CCOCc1cn(-c2ccc(Cl)cc2)nn1` 7.04

----------
- Protocol Details: Kinetic solubility in pH 7.4 phosphate buffer at 1 to 250 uM after 2 hrs
- Assay type: physicochemical
- Experimental Conditions: read-out: Kinetic_solubility
Recorded Endpoint: solubility kinetic at 2 h

Identify measured solubility kinetic at 2 h corresponding to `CCOCc1cn(-c2ccc(Cl)cc2)nn1` < 250 µM

----------
- Target Or Test System: UDP-glucuronosyltransferase 1A9 (Homo sapiens, UniProt O60656)
- Sequence (O60656 whole entry): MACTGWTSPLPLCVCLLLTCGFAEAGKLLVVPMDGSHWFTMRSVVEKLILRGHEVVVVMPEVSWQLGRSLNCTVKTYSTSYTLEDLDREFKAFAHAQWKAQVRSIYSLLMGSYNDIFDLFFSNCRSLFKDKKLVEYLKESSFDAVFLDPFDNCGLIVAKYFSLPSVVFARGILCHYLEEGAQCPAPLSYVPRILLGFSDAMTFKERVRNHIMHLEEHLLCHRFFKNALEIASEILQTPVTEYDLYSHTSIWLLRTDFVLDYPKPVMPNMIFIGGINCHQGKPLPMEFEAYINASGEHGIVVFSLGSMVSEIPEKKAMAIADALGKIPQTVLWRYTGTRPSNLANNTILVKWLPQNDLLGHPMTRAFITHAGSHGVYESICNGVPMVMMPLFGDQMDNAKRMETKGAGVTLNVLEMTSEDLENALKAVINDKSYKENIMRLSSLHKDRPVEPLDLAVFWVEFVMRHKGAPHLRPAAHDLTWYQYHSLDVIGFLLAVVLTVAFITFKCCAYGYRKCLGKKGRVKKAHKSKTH
- Protocol Details: Drug metabolism assessed as UGT1A9 (unknown origin)-mediated metabolite formation
- Format: ADME

Molecule | Drug metabolism
O=C(O)Cc1ccccc1Nc1c(Cl)cccc1Cl | Metabolite_Notdetected
CC(C)Cc1ccc(C(C)C(=O)O)cc1 (centres undefined) | Metabolite_Detected
COc1ccc2cc([C@H](C)C(=O)O)ccc2c1 | Metabolite_Detected
CCOCc1cn(-c2ccc(Cl)cc2)nn1 | Metabolite_Notdetected

----------
- Protocol Details: n-Octanol/PBS distribution coefficient, log D of the compound at pH 7.4 at 25 mM after 2 hrs
- Format: physicochemical
Recorded Endpoint: logD at 2 h, 25000 µM
Provide a numeric answer; units are not to be included.

Identify measured logD at 2 h, 25000 µM corresponding to `CCOCc1cn(-c2ccc(Cl)cc2)nn1` -1.96

----------
Parameter pIC50: see the listing below.
- Target Or Test System: P2X purinoceptor 7 (Homo sapiens, UniProt Q99572)
- Sequence (Q99572 whole entry): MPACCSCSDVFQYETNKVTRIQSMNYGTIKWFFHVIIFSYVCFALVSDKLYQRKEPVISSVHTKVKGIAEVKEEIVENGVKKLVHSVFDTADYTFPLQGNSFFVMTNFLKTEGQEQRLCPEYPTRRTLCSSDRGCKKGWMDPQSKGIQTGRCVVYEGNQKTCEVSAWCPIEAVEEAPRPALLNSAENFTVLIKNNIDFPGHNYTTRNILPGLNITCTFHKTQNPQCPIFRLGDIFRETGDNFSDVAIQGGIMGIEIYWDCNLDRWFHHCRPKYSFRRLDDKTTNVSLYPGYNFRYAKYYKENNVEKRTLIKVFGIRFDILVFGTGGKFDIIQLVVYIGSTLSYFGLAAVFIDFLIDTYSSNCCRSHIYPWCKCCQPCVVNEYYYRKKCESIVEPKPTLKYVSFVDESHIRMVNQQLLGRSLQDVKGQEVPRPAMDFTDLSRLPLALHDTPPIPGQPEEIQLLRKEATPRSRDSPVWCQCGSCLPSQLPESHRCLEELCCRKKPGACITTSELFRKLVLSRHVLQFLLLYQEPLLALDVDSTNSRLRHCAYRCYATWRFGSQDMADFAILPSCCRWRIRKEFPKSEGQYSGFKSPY
- Protocol Details: Antagonist activity at human P2X7 receptor expressed in HEK293 cells assessed as inhibition of ATP-induced ethidium iodide uptake preincubated for 10 mins followed by ATP addition measured after 20 mins by spectrofluorometric analysis
- Format: cell-based
Please treat pIC50 as minus the base-10 logarithm of the molar concentration.

Worked examples follow.
Compound | pIC50
CCCCCCCCCC(=O)OCc1cn(-c2ccc(Cl)cc2)nn1 | 6.97
COc1ccc(-n2cc(CO)nn2)cc1 | 6.03
COc1ccc(CC(=O)NC(N/C(=N/C#N)Nc2cccc3ncccc23)C(C)(C)C)cc1OC (centres undefined) | 7.07
CCCCOCc1cn(-c2cc(Cl)ccc2Cl)nn1 | 6.21
OCc1cnn(-c2ccccc2)n1 | 6.28
CCOCc1cn(-c2ccc(Cl)cc2)nn1 | 8.28
CCOc1ccc(Nc2ccc(/C(=C3C=C/C(=[N+](/CC)Cc4cccc(S(=O)(=O)[O-])c4)C=C/3C)c3ccc(N(CC)Cc4cccc(S(=O)(=O)[O-])c4)cc3C)cc2)cc1.[Na+] | 6.26
O/N=C/c1cnn(-c2ccccc2)n1 | 6.05

Identify measured pIC50 corresponding to `O=Cc1cn(-c2ccccc2)nn1` 6.32

----------
- Protocol Details: Cytotoxicity against Swiss mouse peritoneal macrophages after 24 hrs by LDH-release assay
- Assay type: cell-based, Peritoneal macrophage
Parameter CC50 at 24 h: see the listing below.
Numbers only here, please. The scale is nM.

Given Smiles | Recorded Endpoint | Number
CCCCCCCCCC(=O)OCc1cn(-c2ccc(Cl)cc2)nn1 | CC50 at 24 h | 2840
CCOCc1cn(-c2ccc(Cl)cc2)nn1 | CC50 at 24 h | 4030
O/N=C/c1cnn(-c2ccccc2)n1 | CC50 at 24 h | 250
CCCCOCc1cn(-c2cc(Cl)ccc2Cl)nn1 | CC50 at 24 h | 505
O=Cc1cn(-c2ccccc2)nn1 | CC50 at 24 h | 3740
COc1ccc(-n2cc(CO)nn2)cc1 | CC50 at 24 h | 363

Identify measured CC50 at 24 h corresponding to `OCc1cnn(-c2ccccc2)n1` 2360

----------
- Tested on: Peritoneal macrophage
- Protocol Details: Toxicity in Swiss mouse peritoneal macrophages assessed as LDH release at 10 uM after 60 mins relative to 0.05% Triton X-100
- Assay type: cell-based
- Experimental Conditions: 1 h
Parameter Activity: see the listing below.
Numbers only here, please. The scale is %.

Worked examples follow.
Given Smiles | Recorded Endpoint | Unit Text | Number
CCOCc1cn(-c2ccc(Cl)cc2)nn1 | Activity | % | 8.33
CCOCc1cnn(-c2ccccc2)n1 | Activity | % | 26.49
OCc1cnn(-c2ccccc2)n1 | Activity | % | 9.18

Identify measured Activity corresponding to `CCCCCCCCCC(=O)OCc1cn(-c2ccc(Cl)cc2)nn1` 8

Identify measured Activity corresponding to `O=Cc1cn(-c2ccccc2)nn1` 10.51

Identify measured Activity corresponding to `O/N=C/c1cn(-c2ccccc2)nn1` 28.59

Identify measured Activity corresponding to `O=C(OCc1cnn(-c2ccccc2)n1)C1CCCC1` 43.04

Identify measured Activity corresponding to `CCCOCc1cn(-c2cc(Cl)ccc2Cl)nn1` 22.66

Identify measured Activity corresponding to `CCCOCc1cn(-c2ccc(OC)cc2)nn1` 13.03

----------
- Target Or Test System: UDP-glucuronosyltransferase 1A3 (Homo sapiens)
- Sequence (P35503 whole entry): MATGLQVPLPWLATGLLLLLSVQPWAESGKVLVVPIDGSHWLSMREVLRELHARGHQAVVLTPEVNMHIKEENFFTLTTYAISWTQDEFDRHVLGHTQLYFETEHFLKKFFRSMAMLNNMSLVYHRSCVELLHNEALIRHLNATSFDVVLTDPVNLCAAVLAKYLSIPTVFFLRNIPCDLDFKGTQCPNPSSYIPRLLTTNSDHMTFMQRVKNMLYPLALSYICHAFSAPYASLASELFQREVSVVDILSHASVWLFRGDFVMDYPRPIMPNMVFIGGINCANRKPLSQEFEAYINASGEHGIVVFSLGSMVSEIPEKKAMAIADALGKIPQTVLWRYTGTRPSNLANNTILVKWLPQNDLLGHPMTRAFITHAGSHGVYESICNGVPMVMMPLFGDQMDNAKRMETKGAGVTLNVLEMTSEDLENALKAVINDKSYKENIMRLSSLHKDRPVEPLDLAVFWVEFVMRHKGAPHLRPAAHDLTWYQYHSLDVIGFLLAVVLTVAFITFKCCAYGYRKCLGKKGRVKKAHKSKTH
- Protocol Details: Drug metabolism assessed as UGT1A3 (unknown origin)-mediated metabolite formation
- Type: ADME

Molecule | Drug metabolism
COc1ccc2cc([C@H](C)C(=O)O)ccc2c1 | Metabolite_Detected
CC(C)Cc1ccc(C(C)C(=O)O)cc1 (centres undefined) | Metabolite_Detected
O=C(O)Cc1ccccc1Nc1c(Cl)cccc1Cl | Metabolite_Detected

----------
- Target Or Test System: UniProt:Q9Z1M0
- Protocol Details: Antagonist activity at mouse P2X7 receptor expressed in human 1321N1 cells assessed as reduction in agonist-induced intracellular Ca2+ levels preincubated for 3 mins followed by agonist addition measured up to 2 mins by Fluo-4 dye-based FLIPR assay
- Assay type: cell-based
pIC50: −log10 of the molar value.
Recorded Endpoint: pIC50

Identify measured pIC50 corresponding to `Clc1cccc(-n2nnnc2NCc2ccccc2Oc2ccccn2)c1Cl` 6.82 to 7.70

----------
Parameter Activity: see the listing below.
- Test system: Peritoneal macrophage
- Protocol Details: Toxicity in Swiss mouse peritoneal macrophages assessed as LDH release at 10 uM after 60 mins relative to 0.05% Triton X-100
- Assay type: cell-based
- Experimental Conditions: 1 h
Numbers only here, please. The scale is %.

Worked examples follow.
Given Smiles | Activity [%]
CCCCCCCCCC(=O)OCc1cn(-c2cc(Cl)ccc2Cl)nn1 | 10
CCCCCC(=O)OCc1cn(-c2ccc(Cl)cc2)nn1 | 34.19
COc1ccc(-n2cc(C=O)nn2)cc1 | 17.92
CCCCCC(=O)OCc1cn(-c2ccccc2)nn1 | 15.83
CCCCCCCCCC(=O)OCc1cn(-c2ccccc2)nn1 | 42.53

Identify measured Activity corresponding to `O/N=C/c1cn(-c2cc(Cl)cc(Cl)c2)nn1` 29.47

Identify measured Activity corresponding to `CCCOCc1cn(-c2cc(Cl)cc(Cl)c2)nn1` 14.03

----------
- Target Or Test System: P2X purinoceptor 7 (Homo sapiens, UniProt Q99572)
- Protocol Details: Antagonist activity at human P2X7 receptor in PMA-differentiated THP-1 macrophages assessed as inhibition of ATP-induced IL-1beta release preincubated for 30 mins followed by ATP addition measured after 30 mins by ELISA
Parameter IC50: see the listing below.
Provide a numeric answer, followed by its unit.

Compound | Result
CCOCc1cn(-c2ccc(Cl)cc2)nn1 | 67 nM

Give IC50 only, for COc1ccc(CC(=O)NC(N/C(=N/C#N)Nc2cccc3ncccc23)C(C)(C)C)cc1OC (configuration not stated) , using P2X purinoceptor 7 (Homo sapiens, UniProt Q99572) data. 82 nM

----------
Parameter IC50: see the listing below.
- Target Or Test System: P2X purinoceptor 7 (Mus musculus, UniProt Q9Z1M0)
- Protocol Details: Antagonist activity at P2X7 receptor in Swiss mouse peritoneal macrophages assessed as inhibition of ATP-induced propidium iodide uptake after 25 mins by flow cytometric analysis
Numbers only here, please. The scale is µM.

Given Smiles | Target Or Test System | IC50, µM
CCOCc1cn(-c2ccc(Cl)cc2)nn1 | P2X purinoceptor 7 (Mus musculus, UniProt Q9Z1M0) | 0.083
CCCCCCCCCC(=O)OCc1cn(-c2ccc(Cl)cc2)nn1 | P2X purinoceptor 7 (Mus musculus, UniProt Q9Z1M0) | 0.107
O=Cc1cn(-c2ccccc2)nn1 | P2X purinoceptor 7 (Mus musculus, UniProt Q9Z1M0) | 0.167
CCOc1ccc(Nc2ccc(/C(=C3C=C/C(=[N+](/CC)Cc4cccc(S(=O)(=O)[O-])c4)C=C/3C)c3ccc(N(CC)Cc4cccc(S(=O)(=O)[O-])c4)cc3C)cc2)cc1.[Na+] | P2X purinoceptor 7 (Mus musculus, UniProt Q9Z1M0) | 0.343
COc1ccc(-n2cc(CO)nn2)cc1 | P2X purinoceptor 7 (Mus musculus, UniProt Q9Z1M0) | 0.488

Identify measured IC50 corresponding to `CCCCOCc1cn(-c2cc(Cl)ccc2Cl)nn1` 0.317

Identify measured IC50 corresponding to `O/N=C/c1cnn(-c2ccccc2)n1` 0.349

Identify measured IC50 corresponding to `OCc1cnn(-c2ccccc2)n1` 0.096
